biological target: BRAF V600E (Homo sapiens, UniProt P15056+Q96SW2, V600E); construct: knock-in of the HiBiT tag to the endogenous BRAF V600E locus; host or cells: A375.10 (A375 clonal line, CRISPR HiBiT knock-in at the endogenous BRAF V600E locus); assay: BRAF V600E HiBiT Degradation Assay; assay type: cell-based; conditions: A375.10 cells, BRAF V600E, 6 hours; read-out: HiBiT-Degradation A375.10 BRAF 6 hours DC50
Sequence (P15056 whole entry V600E): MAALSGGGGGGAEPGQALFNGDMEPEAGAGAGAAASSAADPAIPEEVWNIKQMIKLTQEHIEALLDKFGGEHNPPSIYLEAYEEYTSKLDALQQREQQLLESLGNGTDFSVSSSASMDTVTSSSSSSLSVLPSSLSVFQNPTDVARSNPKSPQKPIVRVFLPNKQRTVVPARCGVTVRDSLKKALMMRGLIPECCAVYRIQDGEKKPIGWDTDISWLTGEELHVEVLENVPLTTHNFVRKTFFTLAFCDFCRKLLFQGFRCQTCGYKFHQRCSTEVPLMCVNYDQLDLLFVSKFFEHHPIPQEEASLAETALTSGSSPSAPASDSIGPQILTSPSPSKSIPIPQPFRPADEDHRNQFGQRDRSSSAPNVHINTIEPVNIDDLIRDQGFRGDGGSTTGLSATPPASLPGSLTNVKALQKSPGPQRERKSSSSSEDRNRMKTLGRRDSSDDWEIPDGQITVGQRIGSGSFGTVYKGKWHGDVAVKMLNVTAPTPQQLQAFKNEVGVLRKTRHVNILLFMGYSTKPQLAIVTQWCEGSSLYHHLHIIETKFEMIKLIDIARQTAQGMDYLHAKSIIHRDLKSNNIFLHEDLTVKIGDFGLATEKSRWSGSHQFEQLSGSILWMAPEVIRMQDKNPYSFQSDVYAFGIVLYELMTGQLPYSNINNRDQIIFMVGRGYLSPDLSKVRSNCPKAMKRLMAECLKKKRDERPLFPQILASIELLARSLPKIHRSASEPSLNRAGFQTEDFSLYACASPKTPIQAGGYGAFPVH
Sequence (Q96SW2 whole entry): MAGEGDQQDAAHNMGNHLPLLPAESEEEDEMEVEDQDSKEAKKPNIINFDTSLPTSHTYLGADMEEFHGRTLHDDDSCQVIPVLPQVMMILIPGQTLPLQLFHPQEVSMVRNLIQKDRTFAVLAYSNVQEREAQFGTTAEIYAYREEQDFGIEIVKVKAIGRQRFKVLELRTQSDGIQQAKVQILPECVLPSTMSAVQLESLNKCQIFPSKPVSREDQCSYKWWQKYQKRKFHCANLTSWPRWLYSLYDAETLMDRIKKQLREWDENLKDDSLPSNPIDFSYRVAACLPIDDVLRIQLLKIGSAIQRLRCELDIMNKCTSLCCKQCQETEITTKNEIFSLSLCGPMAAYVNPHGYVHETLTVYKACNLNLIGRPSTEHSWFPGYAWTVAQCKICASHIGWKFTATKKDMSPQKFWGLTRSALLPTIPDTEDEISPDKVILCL
Sequence (Q16531 whole entry partner): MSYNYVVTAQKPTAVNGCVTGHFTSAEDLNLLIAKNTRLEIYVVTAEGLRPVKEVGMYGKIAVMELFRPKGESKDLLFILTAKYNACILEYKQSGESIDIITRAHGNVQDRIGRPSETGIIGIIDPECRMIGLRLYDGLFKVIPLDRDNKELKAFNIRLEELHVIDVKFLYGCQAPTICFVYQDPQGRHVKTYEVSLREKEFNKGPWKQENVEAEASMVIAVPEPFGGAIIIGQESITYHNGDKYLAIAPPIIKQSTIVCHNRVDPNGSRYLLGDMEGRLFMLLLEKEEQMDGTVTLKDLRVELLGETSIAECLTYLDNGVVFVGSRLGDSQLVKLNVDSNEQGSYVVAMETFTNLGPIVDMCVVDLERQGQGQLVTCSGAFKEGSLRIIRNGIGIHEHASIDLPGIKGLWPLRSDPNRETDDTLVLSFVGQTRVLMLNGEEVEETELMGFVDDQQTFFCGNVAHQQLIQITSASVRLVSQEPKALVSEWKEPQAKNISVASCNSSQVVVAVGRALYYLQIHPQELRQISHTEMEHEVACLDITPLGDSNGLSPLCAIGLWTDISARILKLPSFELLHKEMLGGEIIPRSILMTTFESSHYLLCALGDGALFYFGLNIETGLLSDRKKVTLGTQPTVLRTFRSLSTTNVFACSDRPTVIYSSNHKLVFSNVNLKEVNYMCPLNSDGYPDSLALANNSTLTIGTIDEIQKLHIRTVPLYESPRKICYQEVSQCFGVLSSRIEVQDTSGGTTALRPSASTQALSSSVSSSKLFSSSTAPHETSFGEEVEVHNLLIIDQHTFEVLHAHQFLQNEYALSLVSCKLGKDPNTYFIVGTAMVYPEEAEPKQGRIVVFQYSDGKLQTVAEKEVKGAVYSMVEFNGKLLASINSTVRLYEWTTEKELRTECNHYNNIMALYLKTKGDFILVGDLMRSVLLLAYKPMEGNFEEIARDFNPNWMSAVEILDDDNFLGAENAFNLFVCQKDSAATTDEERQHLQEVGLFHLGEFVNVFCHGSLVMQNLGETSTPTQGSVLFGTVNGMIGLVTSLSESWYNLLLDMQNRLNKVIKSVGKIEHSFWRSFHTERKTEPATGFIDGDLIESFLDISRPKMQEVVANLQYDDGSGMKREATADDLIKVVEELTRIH
endpointName: DC50

Here are 5 molecules together with their reported answers.
CCN(C)S(=O)(=O)Nc1ccc(F)c(Oc2ccc3ncn(C4CC5(CCN(C6CCN(c7cc8c(cc7F)c(N7CCC(=O)NC7=O)nn8C)CC6)CC5)C4)c(=O)c3c2)c1C#N = < 1000 nM
CCN(C)S(=O)(=O)Nc1ccc(F)c(Oc2ccc3ncn([C@H]4COC5(CCC(N6CCC(c7cc8c(cc7F)c(N7CCC(=O)NC7=O)nn8C)C(F)(F)C6)CC5)C4)c(=O)c3c2)c1C#N (single isomer, unassigned) [Compound 39] = < 1000 nM
CN(CCO)S(=O)(=O)Nc1ccc(F)c(Oc2ccc3ncn([C@H]4COC5(CCN(C6CCC(c7ccc(NC8CCC(=O)NC8=O)cc7F)CC6)CC5)C4)c(=O)c3c2)c1C#N (single isomer, unassigned) = < 1000 nM
CCN(C)S(=O)(=O)Nc1ccc(F)c(Oc2ccc3ncc([C@H]4COC5(CCN(C6CCC(c7ccc(NC8CCC(=O)NC8=O)cc7F)CC6)CC5)C4)nc3c2)c1C#N (single isomer, unassigned) = < 1000 nM
CO[C@@H]1CCN(S(=O)(=O)Nc2ccc(F)c(Oc3ccc4ncn(C5CC6(CCN(C7CCC(c8cc9c(cc8F)c(N8CCC(=O)NC8=O)nn9C)CC7)CC6)C5)c(=O)c4c3)c2C#N)C1 (single isomer, unassigned) [Compound 102] = < 1000 nM

Dear reader, for each entry below, please note its DC50.
1. Cn1nc(N2CCC(=O)NC2=O)c2cc(F)c(C3CCC(N4CCC5(CC4)CC(n4cnc6ccc(Oc7c(F)ccc(NS(=O)(=O)N8CC[C@@H](F)C8)c7C#N)cc6c4=O)C5)CC3)cc21 (single isomer, unassigned) [Compound 122]
2. CCN(C)S(=O)(=O)Nc1ccc(F)c(Nc2ccc3ncn([C@@H]4COC5(CCN(C6CCC(c7cc8c(cc7F)c(N7CCC(=O)NC7=O)nn8C)CC6)CC5)C4)c(=O)c3c2F)c1C#N (single isomer, unassigned)
3. CN(CCO)S(=O)(=O)Nc1ccc(F)c(Oc2ccc3ncn([C@H]4COC5(CCN(C6CCC(c7cc8c(cc7F)c(N7CCC(=O)NC7=O)nn8C)CC6)CC5)C4)c(=O)c3c2)c1C#N (single isomer, unassigned)
4. CCN(C)S(=O)(=O)Nc1ccc(F)c(Oc2ccc3ncn([C@H]4COC5(CCN(C6CCC(c7cc8c(cc7F)c(N7CCC(=O)NC7=O)nn8C)CC6F)CC5)C4)c(=O)c3c2)c1C#N (single isomer, unassigned)
5. CCN(C)S(=O)(=O)Nc1ccc(F)c(Oc2ccc3ncn([C@H]4COC5(CCN(C6CCC(c7ccc(N[C@H]8CCC(=O)NC8=O)cc7F)CC6)CC5)C4)c(=O)c3c2)c1C#N (single isomer, unassigned)

## Output
1. < 1000 nM
2. < 1000 nM
3. < 1000 nM
4. < 1000 nM
5. < 1000 nM

Dear reader, for each entry below, please note its DC50.
1. CCN(C)S(=O)(=O)Nc1ccc(F)c(Nc2ccc3ncn([C@H]4COC5(CCN(C6CCC(c7cc8c(cc7F)c(N7CCC(=O)NC7=O)nn8C)CC6)CC5)C4)c(=O)c3c2F)c1C#N (single isomer, unassigned)
2. CO[C@@H]1CCN(S(=O)(=O)Nc2ccc(F)c(Oc3ccc4ncn([C@H]5COC6(CCN(C7CCC(c8ccc(NC9CCC(=O)NC9=O)cc8F)CC7)CC6)C5)c(=O)c4c3)c2C#N)C1 (single isomer, unassigned)
3. CCN(C)S(=O)(=O)Nc1ccc(F)c(Oc2ccc3ncn([C@H]4COC5(CCN(C6CCC(c7ccc(N[C@@H]8CCC(=O)NC8=O)cc7F)CC6)CC5)C4)c(=O)c3c2)c1C#N (single isomer, unassigned)

## Output
< 1000 nM
< 1000 nM
< 1000 nM

Dear reader, for each entry below, please note its DC50.
1. CCN(C)S(=O)(=O)Nc1ccc(F)c(Nc2ccc3ncn([C@H]4COC5(CCN(C6CCC(c7ccc(NC8CCC(=O)NC8=O)cc7F)CC6)CC5)C4)c(=O)c3c2)c1C#N (single isomer, unassigned)
2. CCN(C)S(=O)(=O)Nc1ccc(F)c(Oc2ccc3ncn([C@H]4CCC5(CCN(C6CCC(c7cc8c(cc7F)c(N7CCC(=O)NC7=O)nn8C)CC6)CC5)C4)c(=O)c3c2)c1C#N (single isomer, unassigned)
3. CCN(C)S(=O)(=O)Nc1ccc(F)c(Oc2ccc3ncn([C@H]4COC5(CCN(C6CC7(C6)CN(c6ccc(NC8CCC(=O)NC8=O)cc6F)C7)CC5)C4)c(=O)c3c2)c1C#N (some centres unmarked)
4. CCN(C)S(=O)(=O)Nc1ccc(F)c(Oc2ccc3ncn([C@@H]4C[C@@H]5CN(C6CCC(c7ccc(NC8CCC(=O)NC8=O)cc7F)CC6)C[C@@H]5C4)c(=O)c3c2)c1C#N (single isomer, unassigned)

## Output
["< 1000 nM", "< 1000 nM", "< 1000 nM", "< 1000 nM"]

---

test: Pharmacokinetics in female BALB/c nude mice bearing A375 xenografts, 1 day dosing (PK and PD study): plasma, tumor and brain concentrations, AUC; type: in vivo; conditions: mouse, brain, po, 0.75 mg/kg, 0.75 mg/kg p.o. BID × 1 day; post 2nd dose; 1 h; read-out: Mean Concentration in Brain ± SEM
endpointName: concentration at 1 h (ng/g)
Give bare numbers, in ng/g.

## Input Quick one: concentration at 1 h for CCN(C)S(=O)(=O)Nc1ccc(F)c(Oc2ccc3ncn(C4CC5(CCN(C6CC7(C6)CN(c6cc8c(cc6F)c(N6CCC(=O)NC6=O)nn8C)C7)CC5)C4)c(=O)c3c2)c1C#N (stereo not shown) ?
## Output 26.7

---

experiment: Pharmacokinetics in female BALB/c nude mice bearing A375 xenografts, 1 day dosing (PK and PD study): plasma, tumor and brain concentrations, AUC; format: in vivo; conditions: mouse, tumor, po; 100 mg/kg p.o. QD × 1 day; read-out: Tumor AUC at 24 hours, Average
endpointName: AUC at 24 h (ng·h/mL)
Give bare numbers, in ng·h/mL.

## Input Quick one: AUC at 24 h for CC(C)(C)c1nc(-c2cccc(NS(=O)(=O)c3c(F)cccc3F)c2F)c(-c2ccnc(N)n2)s1 [Dabrafenib, dabrafenib, reference compound] ?
## Output 1680

---

assay: Pharmacokinetics after 21 days dosing in the efficacy study (plasma, tumor and brain concentrations; plasma AUC at steady state), Example 14; format: in vivo, female BALB/c nude mice; settings: mouse, plasma, po; 3 mg/kg p.o. QD x 21 days; 4 h; mean ± SEM; read-out: Concentration in Plasma
endpointName: concentration at 4 h
The reply must contain the numeric value and, after it, the unit.

## Input Quick one: concentration at 4 h for CCN(C)S(=O)(=O)Nc1ccc(F)c(Oc2ccc3ncn(C4CC5(CCN(C6CC7(C6)CN(c6cc8c(cc6F)c(N6CCC(=O)NC6=O)nn8C)C7)CC5)C4)c(=O)c3c2)c1C#N (stereo not shown) ?
## Output 2.43 µg/mL

---

target: BRAF V600E (Homo sapiens, UniProt P15056+Q96SW2, V600E); construct: knock-in of the HiBiT tag to the endogenous BRAF V600E locus; host or cells: A375.10 (A375 clonal line, CRISPR HiBiT knock-in at the endogenous BRAF V600E locus); assay: BRAF V600E HiBiT Degradation Assay; format: cell-based; conditions: A375.10 cells, HiBiT, BRAF V600E, 24 hours; read-out: HiBiT-Degradation A375.10 BRAF 24 hours IP
endpointName: DC50

CCN(C)S(=O)(=O)Nc1ccc(F)c(Oc2ccc3ncn([C@H]4COC5(CCN(C6CCC(c7cc8c(cc7F)c(N7CCC(=O)NC7=O)nn8C)CC6O)CC5)C4)c(=O)c3c2)c1C#N (single isomer, unassigned) [Compound 43] = < 1000 nM

Dear reader, for each entry below, please note its DC50.
1. CCN(C)S(=O)(=O)Nc1ccc(F)c(Oc2ccc3ncn(C4CC5(CCN(C6CCC(c7ccc(NC8CCC(=O)NC8=O)cc7F)CC6)CC5)C4)c(=O)c3c2)c1C#N (single isomer, unassigned) [Compound 7]
2. CCN(C)S(=O)(=O)Nc1ccc(F)c(Oc2ccc3ncc(C4CC5(C4)CN(C4CCC(c6cc7c(cc6F)c(N6CCC(=O)NC6=O)nn7C)CC4)C5)nc3c2)c1C#N (single isomer, unassigned) [Compound 298]
3. CCN(C)S(=O)(=O)Nc1ccc(F)c(Oc2ccc3ncn(C4CC5(CCN(C6CCC(c7cc8c(cc7F)c(N7CCC(=O)NC7=O)nn8C)CC6)CC5)C4)c(=O)c3c2)c1F (single isomer, unassigned)
4. CN(CCO)S(=O)(=O)Nc1ccc(F)c(Oc2ccc3ncn([C@H]4COC5(CCN(C6CCC(c7ccc(NC8CCC(=O)NC8=O)cc7F)CC6)CC5)C4)c(=O)c3c2)c1C#N (single isomer, unassigned)
5. CCN(C)S(=O)(=O)Nc1ccc(F)c(Oc2ccc3ncc(C4CC5(C4)CN(C4CCC(c6cc7c(cc6F)c(N6CCC(=O)NC6=O)nn7C)CC4)C5)nc3c2)c1C#N (single isomer, unassigned) [Compound 297]
6. CCN(C)S(=O)(=O)Nc1ccc(F)c(Oc2ccc3ncn(C4CC5(CCN(C6CCC(c7cc8c(cc7F)c(N7CCC(=O)NC7=O)nn8C)CC6F)CC5)C4)c(=O)c3c2)c1C#N (single isomer, unassigned) [Compound 84]

## Output
1. < 1000 nM
2. < 1000 nM
3. < 1000 nM
4. < 1000 nM
5. < 1000 nM
6. < 1000 nM

## Input Quick one: DC50 for CCN(C)S(=O)(=O)Nc1ccc(F)c(Oc2ccc3ncn(C4CC5(CCN(C6CCC(c7cc8c(cc7F)c(N7CCC(=O)NC7=O)nn8C)CC6)CC5)C4)c(=O)c3c2)c1C#N (single isomer, unassigned) [Compound 8] ?
## Output < 1000 nM
